test-method-notes: Visual solubility evaluation in buffer at fixed concentration of 5 mg/mL
Type: physicochemical
experimental-parameters: aqueous buffer; pH 5, citrate buffer; water solubility determined visually at fixed concentration of 5 mg/mL; read-out: Visual solubility, pH 5
Experimental: This Example illustrates the desirable solubility characteristics of the aminoflavone compounds of the present invention. In Table 2 below, the water solubility of compounds 1a-d of Table 1 are set forth at different pH with a citrate or phosphate buffer, as indicated. Solubility was determined visually at a fixed concentration of 5 mg/mL.
Give solubility for every item shown.

For reference, reported solubility for Cc1c(F)c(N)c2c(=O)cc(-c3ccc(NC(=O)[C@@H](N)CCCCN)c(F)c3)oc2c1F stands at < 5000 µg/mL

For reference, reported solubility for Br.Br.Br.Cc1c(F)c(N)c2c(=O)cc(-c3ccc(NC(=O)C(N)CCCNC(=N)N)c(F)c3)oc2c1F (stereo not shown) stands at < 5000 µg/mL

For reference, reported solubility for Cc1c(F)c(NC(=O)CN(C)C)c2c(=O)cc(-c3ccc(NC(=O)CN(C)C)c(F)c3)oc2c1F stands at > 5000 µg/mL

For reference, reported solubility for Cc1c(F)c(N)c2c(=O)cc(-c3ccc(NC(=O)CN(C)C)c(F)c3)oc2c1F stands at < 5000 µg/mL

====

test-method-notes: Visual solubility evaluation in buffer at fixed concentration of 5 mg/mL
Format: physicochemical
experimental-parameters: aqueous buffer; pH 3, citrate buffer; water solubility determined visually at fixed concentration of 5 mg/mL; read-out: Visual solubility, pH 3
Protocol: This Example illustrates the desirable solubility characteristics of the aminoflavone compounds of the present invention. In Table 2 below, the water solubility of compounds 1a-d of Table 1 are set forth at different pH with a citrate or phosphate buffer, as indicated. Solubility was determined visually at a fixed concentration of 5 mg/mL.
Give solubility for every item shown.

For reference, reported solubility for Cc1c(F)c(N)c2c(=O)cc(-c3ccc(NC(=O)[C@@H](N)CCCCN)c(F)c3)oc2c1F stands at > 5000 µg/mL

For reference, reported solubility for Cc1c(F)c(N)c2c(=O)cc(-c3ccc(NC(=O)CN(C)C)c(F)c3)oc2c1F stands at < 5000 µg/mL

For reference, reported solubility for Br.Br.Br.Cc1c(F)c(N)c2c(=O)cc(-c3ccc(NC(=O)C(N)CCCNC(=N)N)c(F)c3)oc2c1F (stereo not shown) stands at > 5000 µg/mL

For reference, reported solubility for Cc1c(F)c(NC(=O)CN(C)C)c2c(=O)cc(-c3ccc(NC(=O)CN(C)C)c(F)c3)oc2c1F stands at > 5000 µg/mL
